System: SF-295
Assay Method Text: NCI tumour cell line growth inhibition, 48 h
The source made the active and inactive calls. Rule as the data show it: active = GI50 up to about 1.1 µM and inactive = higher.
I'd be grateful if you could share measured GI50 for these entries.

Sample answers from the record:
Compound	Measured On	Measured Value
Cc1oc2nc(N(C)C)n3nnnc3c2c1C	SF-295	> 100 µM (inactive)
CC1=C(SC#N)S(=O)(=O)N(c2ccccc2)C(C)=C1SC#N	SF-295	22.6 µM (inactive)
CC(=O)NC(CCCNC(=O)N(CCCl)N=O)C(=O)NCc1ccccc1 (centres undefined)	SF-295	27.9 µM (inactive)
NC(=O)C(N)CC12CC3CC(CC(C3)C1)C2 (centres undefined)	SF-295	23.3 µM (inactive)
CC1=NNC(=O)C1C1CC(c2c[nH]c3ccccc23)=NN=C1Cl (centres undefined)	SF-295	53.1 µM (inactive)

Report GI50 for each item below.
1. Cc1n[nH]c(=O)n1/N=C/c1ccc(Cl)cc1
2. COC(=O)C(CCSc1ccccc1)C(=O)OC
3. Cc1ccccc1C1SCc2nc3ccccc3n21 (centres undefined)
4. COc1cc2cc[n+]3c(C)c4cc(OC)c(OC)cc4c([O-])c3c2cc1OC
5. COc1ccc(C(=C[N+](=O)[O-])c2ccc(OC)cc2)cc1
6. CNC(=O)c1ccccc1[S+]1c2cccc3cccc(c23)C(=O)N1C (centres undefined)
7. CCOC(=O)C1(Cc2ccc3c(c2)CCC3)Cc2cc3c(cc2C1=O)CCC3 (centres undefined)

1. 46 µM (inactive)
2. > 100 µM (inactive)
3. 48.9 µM (inactive)
4. > 100 µM (inactive)
5. 5.96 µM (inactive)
6. > 100 µM (inactive)
7. 48.3 µM (inactive)

Report GI50 for each item below.
1. Cc1cc(O)nc(NNC(C#N)c2c(O)ccc3ccccc23)n1 (centres undefined)
2. OCC(O)COc1ccc(Br)cc1 (centres undefined)
3. COC1CC(OC2CCC3(C)C(CCC45CCC(C6=CC(=O)OC6)C(C)(CCC43)C5=O)C2)OC(C)C1O (centres undefined)
4. Fc1ccc(C2NC(=S)NC3=C2CCOc2c3ccc3ccccc23)cc1 (centres undefined)
5. CNNC1=NS(=O)(=O)c2cc(C)c(Cl)cc2S1
6. CC(Oc1ccc(Oc2cnc3ccc(Cl)cc3n2)cc1)C(=O)O (centres undefined)

1. 4.74 µM (inactive)
2. > 100 µM (inactive)
3. 33.9 µM (inactive)
4. 34.4 µM (inactive)
5. > 10 µM (inactive)
6. 98.9 µM (inactive)

Report GI50 for each item below.
1. Fc1cc(C2=C[C@H](c3ccc(Cl)cc3)NC(=S)N2)c(Cl)cc1Cl
2. CN1CCC2(CC1)C(=O)N(NC(N)=O)C(=O)C2c1ccccc1 (centres undefined)
3. CCC1=NC(N/N=C/c2ccco2)=N/C1=C\c1ccccc1O
4. CC(C)(C)OC(=O)N1C[C@H](CC(=O)OCc2ccccc2)C[C@H]1C(=O)OCC(Cl)(Cl)Cl
5. O=C(/C=C\c1cccc2ccccc12)c1ccc(Br)cc1
6. O=c1cc(NNCc2ccccc2)[nH]c(=O)[nH]1

28.2 µM (inactive)
> 100 µM (inactive)
44.2 µM (inactive)
2.38 µM (inactive)
22.4 µM (inactive)
> 100 µM (inactive)
